# test_summary: TOX21_PR_BLA_Followup_Agonist_viability: Viability Assessment in the Tox21 HEK293 Progesterone Receptor (PR) Agonism Beta-lactamase Follow-Up Assay (AID 2283935);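 further: cells exposed to compound for 16 hr at 37 °C; signal loss means lower viability so actives are cytotoxic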
# Protocol: TOX21_PR_BLA_Followup is a secondary assay for specificity for the TOX21_PR_BLA_Agonist assay. To differentiate true PR agonists from cytotoxic substances, this follow up assay is multiplexed with a cell viability assay. The compounds were also tested for auto fluorescence that may interfere with the biological target readout resulting in potential false positives and/or negatives. […]
Inconclusive results are not listed. Calls of active or inactive are those of the source. How the source made its calls: active means hit-call score of the fitted dose curve at least 0.9, where 1 is the maximum; inconclusive means response in the unintended direction; inactive means score below 0.9.
Bench note: report the call from active, inactive

Enquiry: For this compound, state the assay outcome: Clc1ccc(C2(Cn3cncn3)CC(Br)CO2)c(Cl)c1 (stereo not given)
Return: inactive

Enquiry: For this compound, state the assay outcome: O=C1C2(Cl)C3(Cl)C4(Cl)C(Cl)(Cl)C5(Cl)C3(Cl)C1(Cl)C5(Cl)C24Cl (stereo not given)
Return: active

Enquiry: For this compound, state the assay outcome: `C[C@H]1CCCC(=O)CCC/C=C/c2cc(O)cc(O)c2C(=O)O1`
Return: inactive

Enquiry: For this compound, state the assay outcome: CC12CC1(C)C(=O)N(c1cc(Cl)cc(Cl)c1)C2=O (stereo not given)
Return: inactive

Enquiry: For this compound, state the assay outcome: `C[C@]12CCC(=O)C[C@@H]1CC[C@@H]1[C@@H]2CC[C@]2(C)[C@@H](O)CC[C@@H]12`
Return: inactive
